// data source = the supplement of paper PMC12764529

assay: folding stability dG unfold from trypsin proteolysis; higher = more stable
Grouping by measured folding stability dG unfold is done with the following cut points: lower range = under 1 kcal/mol, middle range = from 1 kcal/mol up to 2 kcal/mol, upper range = 2 kcal/mol and over

residue_sequence	class_label
SMVTETSEEVKLPSPVRLLIDKKITTFPESGVVEVPTLVTVIPPSGPDTTLPYRVLYTINDDTYTEKRLLSA [r9_154_JUSTAS]	lower range
SAGFTLKLEFPDSTVDVKVTKVDPKNNIIYAEALLPGGEKLTLTYNPETGEIEIEKKKLERTPDGGLEESAG [r14_466_JUSTAS]	lower range
SAGGSAGGSAGGPLIVFERNADGTLTAVAVDEETGEVTVTRVTLKDGKLTVETETLPLDESAGGSAGGSAGG [r7_28_TrROS_Hall]	middle range
SAGGSAGGSKVKIETVENEDGVKFERVVDEETGKTVFLAKNKKTGKLYLFVITPDGEIKVFELSAGGSAGGS [r12_474_TrROS_Hall]	middle range
SAGGGSTTTRTIGSKDGTVATVTVTTDPATGTTTVTISSPSPEVLEEVAAQLGLPVREVLPDGTVVLASAGG [r13_937_JUSTAS]	lower range
SAGEVELKIVLPKEEIEKILEALRKLAEEAGLEVEVEKIEKKEDGYYVITVTVKFKETEKEIKIEIIIPSAG [r5_41_TrROS_Hall]	upper range
SAGGKEYTAKVVEIKKVGNKIFIKIKLSDGRELTIEIKTPEEAKKLKVGDTVKITVNEDGSLTIEVLSAGGS [r16_2_TrROS_Hall]	upper range
SAGDTISIMIPPGMSGERAVNQIKYIAREQKENGKKRKITIWMPDPMRARFIKKALDEKGIPIEIEFWSAGG [r19_268_TrROS]	middle range

**Q:** For this sequence, which bin applies? SAGGSAGGSNEKKYIYRAKITIPGKEGEKPFEIEFESEEEVIELVEKLFPKENIKLEVEKFELDSAGGSAGG [r6_113_TrMRF]
**A:** middle range

**Q:** For this sequence, which bin applies? SAGGSPNYKINVEVEEYEPNPDNGKPYYRARIKIEWYNPENGREQTREIDFWMSPDKAEKFLKDILSAGGSA [r2_357_TrROS]
**A:** middle range

----------
assay: folding stability dG unfold from chymotrypsin proteolysis; higher = more stable
This listing pairs sequences with measured folding stability dG unfold.
Give just the number in kcal/mol; leave the unit off.

In the examples that follow, each entry is paired with its recorded folding stability dG unfold.
residue_sequence	endpoint_label	reported
SAGGKRKIMIPMDEMEEKFGIPPNQTVEELAKYINPNYKIEVDNVRYEKDENGKERYWVKVEIEPPKDSAGG [r13_723_TrROS]	folding stability dG unfold	-0.136
MVITPEEVAEMLGVSPEELAALPLEELAQRILEVLPAGVATSVTVERDPARGTTTITVTLSDGKNIDVTLES [r1_340_JUSTAS]	folding stability dG unfold	4.61
SAGGSAGGSSPVRMVATIPLPDGTTITVEAEIVRLPDGTILIKTPSGEIIEVPPDVPVEFFPESAGGSAGGS [r20_227_JUSTAS]	folding stability dG unfold	2.45
SAGGSFDPVEITTLEDGTIKILAKDPNTNKLFITTLKAKSIKTSSLGNGKTITTIPHEKVEESEELPSAGGS [r16_615_JUSTAS]	folding stability dG unfold	-0.0729

**Q:** Please look at this sequence and report its folding stability dG unfold: SAGGSAGGSKPIKTKATIPLPNGKTITADVEIVVLPDGNILLRVPSGKVILVPPNYPVTFEDASAGGSAGGS [r20_227_TrMRF]
**A:** 1.62

**Q:** Please look at this sequence and report its folding stability dG unfold: SAGGSAGGSAGMVKVKITAPPNASLDAIIKAVKDNGAEIISIERKGNELIIEVEIPEENASAGGSAGGSAGG [r11_672_TrMRF]
**A:** 1.28

**Q:** Please look at this sequence and report its folding stability dG unfold: SAGGSSIKVTITDKNGNEYEIEIPSSLSLEEAKEKVKEYLEKKGYKVESITVENLPPGEAEIKVLKSAGGSA [r2_148_JUSTAS]
**A:** 0.465

**Q:** Please look at this sequence and report its folding stability dG unfold: SAGKPKKKKRTITIPIEHNPNNGNFTIKIRWPGRPVTVPFPGDDPEEMLDNMLNELENRLGWPIDEVEISAG [r5_251_TrROS]
**A:** -0.116

**Q:** Please look at this sequence and report its folding stability dG unfold: SAGGSEALTKNLPGVKEIKIEVEPTEVALSPELAKLLPNLPGVKFTVPSVKIDIKIEYPGTPDGTLSAGGSA [r2_404_TrMRF]
**A:** -0.659

**Q:** Please look at this sequence and report its folding stability dG unfold: SAKTVTLKVTLEIEINGVRVKVEATLTLELDENGELKLTLELKIEIEPAPPPKEVKLTEEEKKKLEELKSAG [r14_442_TrROS_Hall]
**A:** 3.79

**Q:** Please look at this sequence and report its folding stability dG unfold: SAGGIKELAKKGYEIKEVTVRVRNKDGSVYEITEIKVVDGELYIKVKNKKTGKIEEKKIPLKDIEIVPSAGG [r13_340_TrROS_Hall]
**A:** 2.12
